- ASSAY_INFO: Cytotoxicity against human KB cells after 3 days by MTT assay
- Type: functional, cell-based
- SETTINGS: 72 h
QUANTITY_KIND: IC50
Please provide the amount together with its unit, number first.

chemical_structure=Cc1c2ccncc2c(C)c2c1[nH]c1ccccc12 assay_value="0.52 µM"

Alright, here's another compound for you.
(Q) Which IC50 reading was recorded for the compound CC(=O)OC[C@H]1O[C@@H](NC(=S)N/N=C2/C(=O)Nc3c(Br)cc(Br)cc32)[C@H](OC(C)=O)[C@@H](OC(C)=O)[C@@H]1OC(C)=O ?
(A) 12.8 µM

----------
Entries annotated with measured IC50 at 3 days
- ASSAY_INFO: Cytotoxicity against mouse NIH/3T3 cells after 3 days by MTT assay
- Format: toxicity, NIH3T3
State just the number; it will be interpreted in nM.

compound="Cc1c2ccncc2c(C)c2c1[nH]c1ccccc12 [ELLIPTECINE]" assay_value=320

Alright, here's another compound for you.
(Q) Which IC50 at 3 days reading was recorded for the compound CC(=O)OC[C@H]1O[C@@H](NC(=S)N/N=C2/C(=O)Nc3c(Br)cc(Br)cc32)[C@H](OC(C)=O)[C@@H](OC(C)=O)[C@@H]1OC(C)=O ?
(A) 1530

----------
- System: Staphylococcus epidermidis
- ASSAY_INFO: Antibacterial activity against Staphylococcus epidermidis ATCC 12228 after 18 to 20 hrs by two-fold microbroth dilution method
- Format: functional
QUANTITY_KIND: MIC (µM)
State just the number; it will be interpreted in µM.

Consider the reported MIC for these compounds:
chemical_structure=CC(=O)OC[C@H]1O[C@@H](NC(=S)N/N=C2/C(=O)Nc3c(C)cccc32)[C@H](OC(C)=O)[C@@H](OC(C)=O)[C@@H]1OC(C)=O unit_descriptor=µM assay_value=12.5
chemical_structure=CC(=O)OC[C@H]1O[C@@H](NC(=S)N/N=C2/C(=O)Nc3ccc([N+](=O)[O-])cc32)[C@H](OC(C)=O)[C@@H](OC(C)=O)[C@@H]1OC(C)=O unit_descriptor=µM assay_value=100
chemical_structure=CC(=O)OC[C@H]1O[C@@H](NC(=S)N/N=C2/C(=O)Nc3ccc(I)cc32)[C@H](OC(C)=O)[C@@H](OC(C)=O)[C@@H]1OC(C)=O unit_descriptor=µM assay_value=6.25

Alright, here's another compound for you.
(Q) Give the reported MIC for C=CCN1C(=O)/C(=N/NC(=S)N[C@@H]2O[C@H](COC(C)=O)[C@@H](OC(C)=O)[C@H](OC(C)=O)[C@H]2OC(C)=O)c2ccccc21 (system: Staphylococcus epidermidis).
(A) 200

----------
Entries annotated with measured Activity
- Tested on: Rattus norvegicus
- ASSAY_INFO: Antioxidant activity in CCL4-intoxicated Wistar albino rat assessed as liver cytosolic superoxide dismutase activity per mg protein at 100 mg/kg, ip administered for 7 consecutive days after DL-alpha-tocopherol acetate treatment followed by CCL4 dosing measured after 24 hrs by xanthine based assay (reference value: 5.27 +/- 0.22 U)
- Format: functional
Please provide the amount together with its unit, number first.

chemical_structure=CC(=O)OC[C@H]1O[C@@H](NC(=S)N/N=C2/C(=O)N(C)c3ccccc32)[C@H](OC(C)=O)[C@@H](OC(C)=O)[C@@H]1OC(C)=O target_or_test_system="Rattus norvegicus" quantity_kind=Activity assay_value="9.52 U"
chemical_structure=CC(=O)OC[C@H]1O[C@@H](NC(=S)N/N=C2/C(=O)Nc3ccc(F)cc32)[C@H](OC(C)=O)[C@@H](OC(C)=O)[C@@H]1OC(C)=O target_or_test_system="Rattus norvegicus" quantity_kind=Activity assay_value="9.84 U"
chemical_structure=CC(=O)OC[C@H]1O[C@@H](NC(=S)N/N=C2/C(=O)Nc3ccc([N+](=O)[O-])cc32)[C@H](OC(C)=O)[C@@H](OC(C)=O)[C@@H]1OC(C)=O target_or_test_system="Rattus norvegicus" quantity_kind=Activity assay_value="6.45 U"
chemical_structure=CC(=O)OC[C@H]1O[C@@H](NC(=S)N/N=C2/C(=O)N(CCc3ccccc3)c3ccccc32)[C@H](OC(C)=O)[C@@H](OC(C)=O)[C@@H]1OC(C)=O target_or_test_system="Rattus norvegicus" quantity_kind=Activity assay_value="8.45 U"
chemical_structure=CC(=O)OC[C@H]1O[C@@H](NC(=S)N/N=C2/C(=O)Nc3ccc(I)cc32)[C@H](OC(C)=O)[C@@H](OC(C)=O)[C@@H]1OC(C)=O target_or_test_system="Rattus norvegicus" quantity_kind=Activity assay_value="10.85 U"

(Q) Which Activity reading was recorded for the compound CCCN1C(=O)/C(=N/NC(=S)N[C@@H]2O[C@H](COC(C)=O)[C@@H](OC(C)=O)[C@H](OC(C)=O)[C@H]2OC(C)=O)c2ccccc21 ?
(A) 9.77 U

(Q) Entry to check: CC(=O)OC[C@H]1O[C@@H](NC(=S)N/N=C2/C(=O)Nc3ccc(Br)cc32)[C@H](OC(C)=O)[C@@H](OC(C)=O)[C@@H]1OC(C)=O
(A) 10.47 U

(Q) Entry to check: CC(=O)OC[C@H]1O[C@@H](NC(=S)N/N=C2/C(=O)N(CC(C)C)c3ccccc32)[C@H](OC(C)=O)[C@@H](OC(C)=O)[C@@H]1OC(C)=O
(A) 9.88 U

(Q) Entry to check: CCCCN1C(=O)/C(=N/NC(=S)N[C@@H]2O[C@H](COC(C)=O)[C@@H](OC(C)=O)[C@H](OC(C)=O)[C@H]2OC(C)=O)c2ccccc21
(A) 9.89 U

(Q) Entry to check: CC(=O)OC[C@H]1O[C@@H](NC(=S)N/N=C2/C(=O)Nc3c2cc(Br)cc3[N+](=O)[O-])[C@H](OC(C)=O)[C@@H](OC(C)=O)[C@@H]1OC(C)=O
(A) 10.76 U

(Q) Entry to check: CC(=O)OC[C@H]1O[C@@H](NC(=S)N/N=C2/C(=O)Nc3ccc(C)cc32)[C@H](OC(C)=O)[C@@H](OC(C)=O)[C@@H]1OC(C)=O
(A) 5.91 U

(Q) Entry to check: CC(=O)OC[C@H]1O[C@@H](NC(=S)N/N=C2/C(=O)Nc3c2cc(Cl)cc3[N+](=O)[O-])[C@H](OC(C)=O)[C@@H](OC(C)=O)[C@@H]1OC(C)=O
(A) 10.57 U

(Q) Entry to check: CCN1C(=O)/C(=N/NC(=S)N[C@@H]2O[C@H](COC(C)=O)[C@@H](OC(C)=O)[C@H](OC(C)=O)[C@H]2OC(C)=O)c2ccccc21
(A) 9.68 U

(Q) Entry to check: CC(=O)OC[C@H]1O[C@@H](NC(=S)N/N=C2/C(=O)Nc3ccc(C(C)C)cc32)[C@H](OC(C)=O)[C@@H](OC(C)=O)[C@@H]1OC(C)=O
(A) 5.82 U
